Test system: COLO 205
Experiment: NCI tumour cell line growth inhibition, 48 h
Active and inactive are the calls of the source. Cut-off read from the data, not from the text of the source: active = GI50 up to about 1.1 µM and inactive = higher.
Possible outcomes: active, inactive

1. Cc1cc(N(CCC#N)CCC#N)ccc1/C=C1N=C(/C=C\c2ccccc2)N(c2ccc(Cl)cc2)C\1=O : active
2. O=C1CCSC2=C1SCc1sccc12 : inactive
3. CC(C)(O)/C=C\P(=O)(O)O : inactive

====

Tested on: HOP-92
Test: NCI tumour cell line growth inhibition, 48 h
Active and inactive are the calls of the source. Cut-off read from the data, not from the text of the source: active = GI50 up to about 1.1 µM and inactive = higher.
Reported values of GI50 for individual entries
measured_quantity: GI50

1. COc1c(NC(C)=O)c2ccccc2c2ccccc12 : 42.2 µM (inactive)
2. CC(=O)OC1CCC2(C)C(=CC(C3C=C4CC(OC(C)=O)CCC4(C)C4=C3C3CC5OC6(CCC(C)CO6)C(C)C5C3(C)CC4)C3=C2CCC2(C)C3CC3OC4(CCC(C)CO4)C(C)C32)C1 (centres undefined) : 14.1 µM (inactive)
3. O=C1c2ccncc2C(=O)c2c(O)ccc(O)c21 : 17.7 µM (inactive)
4. O=C1CCc2nc3ncccc3cc2C1 : > 100 µM (inactive)

====

System: ACHN
Assay: NCI tumour cell line growth inhibition, 48 h
Calls of active or inactive are those of the source. No stated cut-off is given here; in the data, active = GI50 up to about 1.1 µM and inactive = higher.
measured_quantity: GI50

1. c1ccc2c(c1)nc1n2CCSC1 : > 100 µM (inactive)
2. COc1ccc(C2=C(Cl)c3cc(OC)c(OC)cc3C2Cl)cc1OC (centres undefined) : 16.6 µM (inactive)
3. COc1cc2cc3c4c(cc(OC)c(OC)c4c2cc1OC)CCN3C(=O)CCC(=O)NCCCN(C)C : > 100 µM (inactive)
4. C[C@]12CC[C@H]3[C@@H](CC=C4C[C@@H](N5CCCC5)CC[C@@]43C)[C@@H]1C/C(=C\c1ccc([N+](=O)[O-])cc1)[C@@H]2O : 15.9 µM (inactive)
5. CC(=O)N1CC(C)(C)c2c1cc(C)c(O)c2C : > 100 µM (inactive)
6. NC1=NN(c2ccccc2)C(=O)C1C(=O)C(=O)Nc1cccc(C(F)(F)F)c1 (centres undefined) : > 100 µM (inactive)
7. C=CCC(CNC(=O)OCc1ccccc1)OC(=O)OCc1ccccc1 (centres undefined) : > 100 µM (inactive)
8. CC1(C)CC(C2CC(C)(C)CC(C)(C)[C@H]2O)[C@@H](O)C(C)(C)C1 (some centres undefined) : > 100 µM (inactive)
9. CN1C2CCC1CC(CCOC(c1ccc(F)cc1)c1ccc(F)cc1)C2 (centres undefined) : 17.1 µM (inactive)

====

System: K562
Test: NCI tumour cell line growth inhibition, 48 h
The source made the active and inactive calls. No stated cut-off is given here; in the data, active = GI50 up to about 1.1 µM and inactive = higher.
Classes used: YES for active, NO for inactive

1) CCOC(=O)C(C[Si](C)(C)C)P(=O)(OCC)OCC (stereo unspecified) : NO
2) CN/N=C(/CCN1CCCC1)CC(c1ccccc1)c1c(O)c2ccccc2oc1=O (stereo unspecified) : NO
3) C[C@@H]1C(=O)O[C@@H]2C[C@@]1(C)[C@@H]1C(=O)C3(O)OC14C2(C)OC(=O)[C@@]4(O)CCC1C3C(O)C=C2CC=CC(=O)[C@@]21C (stereo partly specified) : NO
4) COc1cc(/C=C/C=C2\CCC/C(=C\C=C\c3ccc(O)c(OC)c3)C2=O)ccc1O : NO
5) CCCC(=O)CC(C)C(=O)C(=O)NC12CC3CC(CC(C3)C1)C2 (stereo unspecified) : NO
6) S=C(NCc1ccccc1)N/N=C/c1ccccn1 : YES
7) CC(=O)OC1CC[C@]2(C)C3CC[C@@]4(C)C(CCC4[C@H](C)CCCC(C)C)[C@@H]3CCC2(Br)C1 (stereo partly specified) : NO
8) C=C(c1ccccc1)[C@@]1(O)CC[C@@H]1N(CC#N)Cc1ccccc1 : NO
9) O=C(CP(=O)(O)O)c1cccs1 : NO
10) CC(C)(O)/C=C\P(=O)(O)O : NO
11) Oc1ccccc1-c1nnc(S)n1/N=C/c1ccc(-c2ccc(Br)cc2)o1 : NO
12) C[C@]12CCC(=O)C=C1C[C@@H](O)[C@@H]1[C@@H]2CC[C@@]2(C)[C@H]1CC[C@]2(C)O : NO
13) C/C(CC(=O)CCC(=O)Nc1cccc(C(F)(F)F)c1)=N\NC(=O)NN : NO
14) COC(=O)Oc1nn(C(=O)OC)c(=O)c2ccccc12 : NO
15) COc1cc(NS(C)(=O)=O)ccc1NCc1c2ccccc2nc2ccccc12 : NO
16) Cc1ccc2c(c1)CN(C(=O)CCC(=O)OCc1ccccc1)c1ccc(C)cc1CN2C(=O)CCC(=O)OCc1ccccc1 : NO
17) O=C1CCCCC1C1(O)C(=O)Nc2cc(F)ccc21 (stereo unspecified) : NO
18) CSC(SC)=C1C(=O)N(c2ccccc2)N=C1C : NO
19) Cc1nc(C(N)=S)sc1C(=O)/C=C/c1c(O)ccc2ccccc12 : NO
20) CCOC(=O)n1cncc1CC(NC(=O)Cc1c(C(=O)C=C(C)C)[nH]c2ccccc12)C(=O)OC (stereo unspecified) : NO
21) Cc1ccc(-c2n[nH]c(=O)n2N)cc1 : NO
22) CCn1c(-c2ccc(OC(C)=O)cc2)c(C)c2cc(OC(C)=O)ccc21 : NO
23) Brc1c2c(c(Br)c3nsnc13)N=S=N2 : NO
24) CCn1c2ccc(O)c(C(=O)OC)c2c2cc3ccccc3c(O)c21 : NO
25) Cc1oc2nc1C(=O)NCc1nc(cs1)C(=O)N[C@H](C(C)C)c1nc(cs1)C(=O)N[C@H]2C : NO
26) COC1(O)c2cccc(Cl)c2C(=O)N1C1(C(N)=O)CCCCC1 (stereo unspecified) : NO
27) O=[N+]([O-])C(/C=C(\Cl)[N+](=O)[O-])=C(N1CCCCC1)N1CCCCC1 : NO
28) CCOC(=O)c1c(C)nc2c3ccccc3c(C#N)c(C)n12 : NO
29) COc1cc(C(c2ccc3c(c2)OCO3)N2C(=O)CCC2C(=O)O)cc(OC)c1OC (stereo unspecified) : NO
30) Cn1c(S)nnc1CNc1ccc(-c2nnc(S)n2C)cc1 : NO
31) CCOC(=O)[C@H]1CSC[C@@H](C(=O)OC)N1 : NO
